- target-system: T1, Anti-CD28 Fab (SEQ ID NOs: 696, 697)
- T1 construct: In the phage ELISA the Fab was biotinylated and captured on neutravidin coated plates
- T1 sequence (VH, as listed by the source, chain 1 of 2): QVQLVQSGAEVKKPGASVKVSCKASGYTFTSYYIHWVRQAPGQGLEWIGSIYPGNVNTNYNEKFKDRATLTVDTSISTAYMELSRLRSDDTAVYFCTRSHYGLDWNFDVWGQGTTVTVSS
- T1 sequence (VL, as listed by the source, chain 2 of 2): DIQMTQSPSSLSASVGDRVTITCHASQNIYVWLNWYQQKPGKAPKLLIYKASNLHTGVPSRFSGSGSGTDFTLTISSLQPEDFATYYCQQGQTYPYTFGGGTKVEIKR
- protocol-summary: phage binding ELISA; Fab-coated wells pre-incubated with CD28 antigen as competitor, phage detected with anti-M13 HRP
Where no end group is shown, it is not given here.
measured-quantity: Anti-CD28 Fab signal in the presence of CD28 (phage binding ELISA)
Returns: the value as a bare number; no unit string appended.

Worked cases, answers included:
| binder | measured-number |
| --- | --- |
| YCEGHLPAYMGKCI (cysteine pairing not given here; also: displayed as fusion to phage pIII, linker not given here) [Phage-1082] | 0.09 |
| YCEGHLPEYMIKCI (cysteine pairing not given here; also: displayed as fusion to phage pIII, linker not given here) [Phage-1083] | 0.1 |
| YCDGHAPEYIQKCL (cysteine pairing not given here; also: displayed as fusion to phage pIII, linker not given here) [Phage-1075] | 0.06 |
| YCDGHQPQYMSKCL (cysteine pairing not given here; also: displayed as fusion to phage pIII, linker not given here) [Phage-1078] | 0.09 |
| YCDGHLALYMWKCL (cysteine pairing not given here; also: displayed as fusion to phage pIII, linker not given here) [Phage-1087] | 0.17 |

Query: Need Anti-CD28 Fab signal in the presence of CD28 (phage binding ELISA), item YCDGHVKEYMYKCL (cysteine pairing not given here; also: displayed as fusion to phage pIII, linker not given here) [Phage-1086]
Reply: 0.06
